Source listed as PubChem BioAssay (NCI).

system: OVCAR-4 ovarian; test: NCI-60 one-dose screen, 48 h; conditions: 10 µM unless noted
The panel holds about 83,000 compounds, 20% with a hit somewhere; the sample as a whole holds those more often. Activity calls are given as the source filed them. The calls were made as follows: active = growth percent below 10; inactive = the rest.
Use one of these outcomes when replying: active, inactive

Please review the entries below; each comes with its answer.
| compound | target_under_test | class |
| --- | --- | --- |
| CCCCSc1nc(Nc2ccc(C(C)=O)cc2)c(C#N)c(-c2ccc(OC)cc2)n1 | OVCAR-4 ovarian | active |
| COc1cc2c(c(OC)c1OC)C(=O)CC(c1cccc(NC(=O)c3cccc([N+](=O)[O-])c3)c1)O2 (centres undefined) | OVCAR-4 ovarian | inactive |
| CC1CCCCN1CCCNC(=O)N/C(N)=N/c1nc2ccccc2s1 (centres undefined) | OVCAR-4 ovarian | inactive |
| COc1ccc(N2N=C(c3ccc4c(c3)OCO4)CC2c2cccc(NC(=O)CCNS(=O)(=O)c3ccc(Cl)cc3)c2)cc1 (centres undefined) | OVCAR-4 ovarian | inactive |
| COc1ccc(C(=O)/C=C/c2ccccc2Br)cc1S(N)(=O)=O | OVCAR-4 ovarian | inactive |

Exam item: Recorded test call requested for CCC(C)(C)c1ccc(OCCCCCCN2CCN(c3ccncc3)CC2)cc1
Marked response: inactive

Exam item: Recorded test call requested for Cc1ccc(NC(=O)CN2CCN(c3ncnc4c3cnn4-c3ccccc3)CC2)cc1
Marked response: inactive
